B1: NEK8 (parent)
chain: YTFGSNQHGQLGTNTRRGSRAPCK

- Variants of: B1
- PROCEDURE_SUMMARY: protein stability index of a GFP-peptide fusion (GPS, HEK-293T) (PSI 1-6); higher = more stable;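 note: lentivirally expressed fusions sorted by FACS into six bins by GFP to DsRed ratio, PSI derived from sequencing read proportions per bin multiplied by bin number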
- MEASUREMENT_PARAMETERS: c terminus: a fixed tail appended
Exercise: for every item that follows, state its recorded protein stability index.
One number for each entry.

MUTATION_LABEL	ENDPOINT_NAME	RECORDED_VALUE
Y1P	protein stability index	4.52
Q7R	protein stability index	3.81
N14L	protein stability index	3.51
R16G	protein stability index	4.24

Give me protein stability index for each of these variants, listed below.
1. G9H
2. C23R
3. G9F
4. T2P
5. N6G
6. L11H
7. Q10V
8. L11D

Completion:
1. 4.16
2. 4
3. 2.1
4. 4.18
5. 3.52
6. 4.23
7. 3.31
8. 4.49

Look up protein stability index for the entries below, preserving their order.
1. P22N
2. R20T
3. C23W
4. R17N
5. Q10R
6. S5F
7. S19I
8. G4M

Completion:
[4.22, 3.86, 3.37, 3.97, 3.82, 2.23, 3.33, 3.44]

Record protein stability index for all entries; do not skip any.
1. S19T
2. T15C
3. S19W
4. P22V
5. A21C
6. L11S
7. C23F
8. T13V

Completion:
3.81
3.56
2.8
3.99
2.94
4.94
3.61
3.67

Quick request: protein stability index for each listed item, please.
1. Q7D
2. N14G
3. Q10W
4. G18Y
5. G9A
6. F3R
7. G18N
8. Q7S

Completion:
1. 3.98
2. 3.49
3. 1.52
4. 3.26
5. 3.39
6. 3.92
7. 3.81
8. 3.58

Need protein stability index for each of these variants.
1. G9P
2. S5E
3. G18W
4. G12R
5. H8C
6. T2E
7. F3W

Completion:
1. 3.38
2. 4.61
3. 3.23
4. 4.11
5. 3.94
6. 4.78
7. 2.06

# per-item lookup of protein stability index; items listed below
1. H8G
2. K24C

Completion:
1: 3.61; 2: 2.72

Provide protein stability index values for the following items, in order.
1. G12E
2. R16P
3. Y1K

Completion:
[4.19, 3.94, 4.79]

Give one value of protein stability index per listed variant.
1. T2A
2. H8K
3. T2W
4. K24D

Completion:
[2.77, 4, 3.32, 3.91]
